- System: MDA-MB-231 breast cancer cells
- protocol-summary: Inhibition of IFN-gamma-dependent growth of MDA-MB-231 cells, MTT assay, 48 hours
- Format: cell-based
- assay-setup: 48 h
Residues, ends and D or L forms follow the SMILES beside them. *: point of attachment. Palmitoyl = CCCCCCCCCCCCCCCC(=O)*

| compound | GI50 / nM |
| --- | --- |
| CCCCCCCCCCCCCCCC(=O)NCCCC[C@H](N)C(=O)N[C@@H](CCCCN)C(=O)N[C@@H](CC(C)C)C(=O)N1CCC[C@H]1C(=O)N[C@@H](CO)C(=O)N[C@H](C(=O)N[C@@H](CC(C)C)C(=O)N[C@@H](CC(C)C)C(=O)N[C@@H](Cc1ccccc1)C(=O)N[C@@H](CCCCN)C(=O)N[C@@H](CCCCN)C(=O)N1CCC[C@H]1C(=O)N[C@@H](CO)C(N)=O)C(C)C [IL10R1-3, ε-Pal-KKLPSVLLFKKPS-NH2] (H-K(Palmitoyl)KLPSVLLFKKPS-NH2; N-terminus assumed) | 2500 |
| CCCCCCCCCCCCCCCC(=O)NCCCC[C@H](N)C(=O)NCC(=O)N[C@@H](CCCCN)C(=O)N[C@@H](CCC(=O)O)C(=O)N[C@@H](CO)C(=O)N[C@@H](CC(C)C)C(=O)N[C@H](C(=O)NCC(=O)N[C@@H](Cc1ccc(O)cc1)C(=O)N[C@@H](CCCNC(=N)N)C(N)=O)[C@@H](C)CC [IFNGR1-11, ε-Pal-KGKESLIGYR-NH2] (H-K(Palmitoyl)GKESLIGYR-NH2; N-terminus assumed) | 2000 |
